So I've got a bunch of compounds here, and I need their nuclear beta-catenin stimulation values.
assay: stimulators of nuclear beta-catenin in C2C12, primary screen, imaging, WNT3A-conditioned medium, mouse C2C12, NPC library (AID 1117326); details: stimulation, at 2 µM, stronger effect = higher value; also: reference of the scale not given here
Use % as the unit, but write only the number.

Req: Which measured nuclear beta-catenin stimulation value corresponds to CCCCCCCCCCCCCCCCCCNC(=O)OC1CCN(C(=O)OC[C@H](COC(=O)N(Cc2cccc[n+]2CC)C(=O)c2ccccc2OC)OC)CC1 ?
Resp: 0.5

Req: Do the same for CC(C(=O)O)c1ccc(/C=C2\CCCCC2=O)cc1 (stereo not drawn) please
Resp: -1.5

Req: Proceed to CC(=O)CC(c1ccccc1)c1c(O)c2ccccc2oc1=O (stereo not drawn)
Resp: 0.2

Req: Same again, this time with CCN(CC)CCOC(=O)c1ccc(N)cc1
Resp: -0.3

Req: # iterate: O=C(O)c1ccccn1
Resp: 0.9

Req: Follow-up item: C=C(CC)C(=O)c1ccc(OCC(=O)O)c(Cl)c1Cl
Resp: 1.4

Req: Same read-out for O=C(/C=C/c1ccc(O)c(O)c1)O[C@@H]1C[C@@](OC(=O)/C=C/c2ccc(O)c(O)c2)(C(=O)O)C[C@@H](O)[C@@H]1O ?
Resp: 0.9

Req: Thanks! And CC(=O)N(CC(=O)N(C)C)c1ccccc1 ?
Resp: 3.8

Req: Queued: CCN(CC)CCSC(=O)C(c1ccccc1)c1ccccc1
Resp: 2.8

Req: Same lookup for Cc1ccc(C(=O)Oc2ccc(C(O)CNC(C)(C)C)cc2OC(=O)c2ccc(C)cc2)cc1 (stereo not drawn) , please.
Resp: 1.1

Req: Try this compound next: COC(=O)CCC[N+](C)(C)C
Resp: 0.6

Req: Now the compound CCCCCOc1ccc(C2SC(=O)NC2=O)cc1OCC (stereo not drawn)
Resp: 11.7

Req: Repeat with CSc1ccc2c(c1)N(CCC1CCCCN1C)c1ccccc1S2 (stereo not drawn)
Resp: 1.6

====

test: stimulators of insulin release from INS-1E, primary screen, cell-based, 5 mM glucose, NPC library (AID 1117329); details: rat INS-1E insulin secretion, at 10 µM; also: reference of the scale not given here
The source made the active and inactive calls.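 Rule for the calls: active = compound raises insulin release from rat beta cells at 5 mM glucose, no numeric limit stated; inactive = the rest.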
Mark one answer only. Choices: 1.0 = active, 0.0 = inactive

Req: How did this test come out for CN(C)CC/C=C1\c2ccccc2COc2ccccc21 ?
Resp: 0.0

Req: Okay, and O=C(O)CCC(=O)C(=O)O ?
Resp: 0.0

Req: Follow-up item: O=C1CC(c2ccc(Cl)cc2)CC(=O)N1
Resp: 0.0

Req: Then CN(C)c1ccc(O)c2c1C[C@H]1C[C@H]3[C@H](N(C)C)C(=O)C(C(N)=O)=C(O)[C@@]3(O)C(=O)C1=C2O ?
Resp: 0.0

Req: Lookup Nc1ncnc2c1ncn2Cc1c(F)cccc1Cl
Resp: 0.0

Req: Another compound to look at: O=C(O)c1ccccc1Nc1cc(Cl)ccc1C(=O)O
Resp: 0.0

Req: Would you kindly repeat that for O=C1c2c(O)ccc(O)c2C(=O)c2c(NCCNCCO)ccc(NCCNCCO)c21 ?
Resp: 0.0

Req: Now try CCCCCCCCCCOCC(O)CN (centres undefined) .
Resp: 0.0

Req: Now try CN1CC(=O)NC1=N .
Resp: 0.0

Req: Input COc1ccc(Cl)cc1C(=O)NCCc1ccc(S(=O)(=O)NC(=O)NC2CCCCC2)cc1
Resp: 1.0

Req: Follow-up entry: CCOC(=O)[C@H](CCc1ccccc1)N[C@@H](C)C(=O)N(CC(=O)O)C1Cc2ccccc2C1
Resp: 0.0

Req: Also check O=C(O)c1cc(=O)c2c3nc4ccccc4oc-3cc(=O)c2[nH]1
Resp: 0.0

Req: Another: CCOc1c(N2CCOCC2)cnn(C)c1=O
Resp: 0.0

Req: Entry COc1ccc(S(=O)(=O)Nc2nnc(CC(C)C)s2)cc1 please
Resp: 0.0

Req: Try this compound next: C[C@@H](O)[C@H]1C(=O)N2C(C(=O)O)=C([C@H]3CCCO3)S[C@H]12
Resp: 0.0

Req: Also, O=C(N/N=C/c1ccccc1O)c1ccncc1 please.
Resp: 0.0

Req: What about this compound? CCN(CC)CCCC(C)Nc1c2ccc(Cl)cc2nc2ccc(OC)cc12 (centres undefined)
Resp: 1.0

Req: Lookup Oc1cccc(O)c1O
Resp: 0.0

Req: Okay, and O=S(O)CO ?
Resp: 0.0

Req: # repeat for COc1ccc(OC(=O)N(CC(=O)O)Cc2ccc(OCCc3nc(-c4ccccc4)oc3C)cc2)cc1
Resp: 0.0

Req: Entry to check: CCCC(=O)OC[C@@H](OC(=O)CCC)[C@@H](OC(=O)CCC)[C@H](Cn1c2nc(=O)[nH]c(=O)c-2nc2cc(C)c(C)cc21)OC(=O)CCC
Resp: 0.0

Req: Can you check NS(=O)(=O)c1ccc(N2CCCCS2(=O)=O)cc1 next?
Resp: 0.0

Req: Subsequent entry: CCCC(CCC)(C(=O)OCC)C(=O)OCC
Resp: 0.0

Req: Now the same for C[C@]12CCC(=O)C=C1CC[C@@H]1[C@@H]2C(=O)C[C@@]2(C)[C@H]1CC[C@]2(O)C(=O)CO
Resp: 0.0

Req: Proceed to CC(=O)c1ccc(O)c(C(N)=O)c1
Resp: 0.0

Req: Can you check O=C(CCN1CCC(c2ccccc2)C1)c1ccc2c(c1)OCCO2 (centres undefined) next?
Resp: 0.0

Req: Please answer likewise for COc1ccc(C(=O)N2CCN(CC(=O)N3CCOCC3)CC2)cc1
Resp: 0.0

Req: Repeat with CCCCCC=CCC=CCCCCCCCC(=O)OCC
Resp: 0.0

Req: Consider next the compound CCNC(=O)NCCCOc1cccc(CN2CCCCC2)c1 in the same way.
Resp: 0.0

Req: Okay, and CCCCCCCCCC(=O)O ?
Resp: 0.0

Req: Same read-out for CC(=O)OC(C)OC(=O)C(C)c1ccc(-c2ccccc2)c(F)c1 (centres undefined) ?
Resp: 0.0

Req: For NCC(=O)O then?
Resp: 0.0

Req: Next up: O=C(/C=C/c1ccccc1)NCCO
Resp: 0.0

Req: What do you have for CCN(CC)CCOC(=O)C1(c2ccccc2)CCCC1 ?
Resp: 0.0

Where these numbers come from: PubChem BioAssay
